Study System: UniProt P37288
Sequence (P37288 whole entry): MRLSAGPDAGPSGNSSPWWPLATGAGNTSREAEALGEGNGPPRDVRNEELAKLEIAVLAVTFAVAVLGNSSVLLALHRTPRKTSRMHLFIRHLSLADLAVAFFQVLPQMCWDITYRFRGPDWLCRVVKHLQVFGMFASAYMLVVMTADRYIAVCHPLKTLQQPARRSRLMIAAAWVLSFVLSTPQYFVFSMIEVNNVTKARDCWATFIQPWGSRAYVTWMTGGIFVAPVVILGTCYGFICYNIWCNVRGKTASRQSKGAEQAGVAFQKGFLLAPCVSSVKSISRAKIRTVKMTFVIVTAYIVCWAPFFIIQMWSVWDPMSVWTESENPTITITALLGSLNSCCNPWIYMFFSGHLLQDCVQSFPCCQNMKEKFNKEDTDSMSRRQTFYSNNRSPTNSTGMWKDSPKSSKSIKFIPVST
Measurement Protocol: Vasopressin V1A receptor antagonist assay (AVP-evoked calcium, FLIPR, CHO-AVPR1a cells)
Assay type: cell-based
Reported Conditions: read-out: V1a IC50
pIC50: −log10 of the molar value.

{"Compound": "Cc1cc(N2CC3(CC(c4nnc5n4-c4ccc(Cl)cc4CN(C4CC4)C5)C3)C2)ncc1F", "pIC50": "> 7.00"}
{"Compound": "COC(=O)N1Cc2cc(Cl)ccc2-n2c(C3CC4(C3)CN(c3ncncc3F)C4)nnc2C1C (single isomer, unassigned) [Cpd 188A]", "pIC50": "> 7.00"}
{"Compound": "CCOC(=O)N1Cc2cc(Cl)ccc2-n2c(C3CC4(C3)CN(c3ccc(F)cn3)C4)nnc2C1C (single isomer, unassigned) [Cpd 169A]", "pIC50": "> 7.00"}
{"Compound": "CN1Cc2cc(Cl)ccc2-n2c(nnc2C2CC3(C2)CN(c2ncncc2F)C3)C1", "pIC50": "> 7.00"}
{"Compound": "CC1c2nnc(C3CC4(C3)CN(c3ccc(F)cn3)C4)n2-c2ccc(Cl)cc2CN1C(=O)OC1CC1 (centres unmarked) [compound 191]", "pIC50": "> 7.00"}
{"Compound": "O=C(C1CC1)N1Cc2cc(Cl)ccc2-n2c(nnc2C2CC3(C2)CN(c2ccc(F)cn2)C3)C1", "pIC50": "> 7.00"}
{"Compound": "CC1c2nnc(C3CC4(C3)CN(c3ccc(F)cn3)C4)n2-c2ccc(Cl)cc2CN1C(=O)OC1CC(F)(F)C1 (centres unmarked)", "pIC50": "> 7.00"}
{"Compound": "N#Cc1ccnc(N2CC3(CC(c4nnc5n4-c4ccc(Cl)cc4CN(C4CC4)C5)C3)C2)n1", "pIC50": "> 7.00"}
{"Compound": "COC(=O)N1Cc2cc(Cl)ccc2-n2c(C3CC4(C3)CN(c3ncccn3)C4)nnc2C1C (single isomer, unassigned) [Cpd 166A]", "pIC50": "> 7.00"}
{"Compound": "CC(C)OC(=O)N1Cc2cc(Cl)ccc2-n2c(C3CC4(C3)CN(c3ccc(F)cn3)C4)nnc2C1C (single isomer, unassigned) [Cpd 163B]", "pIC50": "6.00 to 6.30"}
{"Compound": "CC1c2nnc(C3CC4(C3)CN(c3ncc(F)cn3)C4)n2-c2ccc(Cl)cc2CN1C(=O)OC1CC1 (single isomer, unassigned) [Cpd 192B]", "pIC50": "< 6.00"}
{"Compound": "CC1(N2Cc3cc(Cl)ccc3-n3c(nnc3C3CC4(C3)CN(c3cccc(C#N)n3)C4)C2)CC1", "pIC50": "> 7.00"}
{"Compound": "CC(C)OC(=O)N1Cc2cc(Cl)ccc2-n2c(C3CC4(C3)CN(c3ncc(F)cn3)C4)nnc2C1C (single isomer, unassigned) [Cpd 201B]", "pIC50": "6.00 to 6.30"}
{"Compound": "CC(C)N1Cc2cc(Cl)ccc2-n2c(nnc2C2CC3(C2)CN(c2ccc(F)cn2)C3)C1", "pIC50": "> 7.00"}
